# test: HBV Replication Inhibition Assay: HBV replication inhibition by the compounds of this invention could be determined in cells infected or transfected with HBV, or cells with stably integrated HBV, such as HepG2.2.15 cells (Sells et al. 1987). In this example, HepG2.2.15 cells were maintained in cell culture medium containing 10% fetal bovine serum (FBS), Geneticin, L-glutamine, penicillin and streptomycin. HepG2.2.15 cells could be seeded in 96-well plates at a density of 40,000 cells/well and be treated with serially diluted compounds at a final DMSO concentration of 0.5% either alone or in combination by adding drugs in a checker box format. Cells were incubated with compounds for three days, after which medium was removed and fresh medium containing compounds was added to cells and incubated for another three days. At day 6, supernatant was removed and treated with DNase at 37° C. for 60 minutes, followed by enzyme inactivation at 75° C. for 15 minutes. Encapsidated HBV DNA was released from the virions and covalently linked HBV polymerase by incubating in lysis buffer (Affymetrix QS0010) containing 2.5 μg proteinase K at 50° C. for 40 minutes. HBV DNA was denatured by addition of 0.2 M NaOH and detected using a branched DNA (BDNA) QuantiGene assay kit according to manufacturer recommendation (Affymetrix). HBV DNA levels could also be quantified using qPCR, based on amplification of encapsidated HBV DNA extraction with QuickExtraction Solution (Epicentre Biotechnologies) and amplification of HBV DNA using HBV specific PCR probes that can hybridize to HBV DNA and a fluorescently labeled probe for quantitation. In addition, cell viability of HepG2.2.15 cells incubated with test compounds alone or in combination was determined by using CellTitre-Glo reagent according to the manufacturer protocol (Promega). The mean background signal from wells containing only culture medium was subtracted from all other samples, and percent inhibition at each compound concentration was calculated by normalizing to signals from HepG2.2.15 cells treated with 0.5% DMSO using equation E1.% inhibition=(DMSOave−Xi)/DMSOave×100% E1:where DMSOave is the mean signal calculated from the wells that were treated with DMSO control (0% inhibition control) and Xi is the signal measured from the individual wells. EC50 values, effective concentrations that achieved 50% inhibitory effect, were determined by non-linear fitting using Graphpad Prism software (San Diego, Calif.) and equation E2Y=Y min+(Y max−Y min)/(1+10(Log EC50−X)×HillSlope) E2:where Y represents percent inhibition values and X represents the logarithm of compound concentrations.
# test_context: HepG2.2.15
Entries and their measured EC50 follow.

O=C(Nc1cccc(Cl)c1)N1CCc2[nH]nc(Br)c2C1    > 10000 nM

Attention now turns to another entry.
Consider the compound CC(CO)c1n[nH]c2c1CN(C(=O)Nc1cccc(Cl)c1)CC2 (centres undefined) and give its recorded EC50. > 10000 nM
